B1: PhoQ; a variant is named by its letters at X, in order, P23837 (parent)
chain: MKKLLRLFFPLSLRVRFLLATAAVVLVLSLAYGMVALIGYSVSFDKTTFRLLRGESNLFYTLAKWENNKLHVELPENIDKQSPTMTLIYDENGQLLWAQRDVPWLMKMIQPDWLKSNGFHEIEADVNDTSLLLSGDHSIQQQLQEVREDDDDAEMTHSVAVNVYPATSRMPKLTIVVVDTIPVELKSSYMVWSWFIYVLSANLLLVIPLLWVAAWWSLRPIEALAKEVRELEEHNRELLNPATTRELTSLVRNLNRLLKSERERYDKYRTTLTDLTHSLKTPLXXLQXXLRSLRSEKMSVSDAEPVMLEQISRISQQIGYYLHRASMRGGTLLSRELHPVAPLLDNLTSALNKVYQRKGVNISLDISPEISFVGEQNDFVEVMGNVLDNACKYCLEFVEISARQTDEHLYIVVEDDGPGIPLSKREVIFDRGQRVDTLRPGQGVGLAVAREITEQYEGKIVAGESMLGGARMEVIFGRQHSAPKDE

variants of: B1; test: enrichment ratio after two sorts for PhoP signalling (ratio (wild type AVST 3.29)); higher = more functional; conditions: with PhoP (E. coli)
The full ranking holds about 140,000 sequences; the median of “enrichment ratio after two sorts for PhoP signalling” is about 0, and the highest 2% start at about 11. The sample holds the highest values, similar sequences and a random draw of the others, so the mix is not that of the screen.
QUANTITY: enrichment ratio

Below are worked cases with known answers.
MKCG :: ≤ 0.25
FFWV :: ≤ 0.25
NWCM :: ≤ 0.25

enrichment ratio reported for this variant `IDIQ` : ≤ 0.25

`AEYQ` yielded enrichment ratio of ≤ 0.25
